The reported measurements were obtained from patent US7964624B1.

# measurement_target: HCV NS3 protease domain (Hepatitis C virus genotype 1b, UniProt Q9WMX2)
# Construct: The first 181 amino acids of NS3 (residues 1027-1207 of the viral polyprotein); hexa-histidine (C); made in house; host or cells: E. coli BL21/DE3 pLysS
# procedure_summary: biochemical
# condition_context: Enzyme Assay 1 (HCV NS3 Protease Domain Peptide Cleavage Assay) activity, apparent Ki class
pKi: −log10 of the molar value.
measurement_label: pKi

Fill in the blank: the reported pKi of CCC[C@H](NC(=O)[C@@H]1C[C@]2(CC(c3cccc(Cl)c3)=NO2)CN1C(=O)[C@@H](NC(=O)NC(C)(C)C)C(C)(C)C)C(=O)C(=O)NC1CC1 [Compound 492] is ____.
> 7.00

Looking for the measured pKi of CCC[C@H](NC(=O)[C@@H]1C[C@]2(CC(c3cccc(-c4ccncc4)c3)=NO2)CN1C(=O)[C@@H](NC(=O)O[C@H]1CCOC1)C(C)(C)C)C(=O)C(=O)NC1CC1 [Compound 425] , can you help?
< 6.30

pKi lookup needed for CCC[C@H](NC(=O)[C@@H]1C[C@]2(CC(c3cccc(Cl)c3)=NO2)CN1C(=O)[C@@H](NC(=O)NCc1ccccc1)C(C)(C)C)C(=O)C(=O)NC1CC1 [Compound 583] , thanks.
6.30 to 7.00

---
# query: pKi of entry CCC[C@H](NC(=O)[C@@H]1C[C@]2(CC(c3ccc4c(c3)CCO4)=NO2)CN1C(=O)[C@@H](NC(=O)CC1CCCCC1)C(C)(C)C)C(=O)C(=O)NC1CC1 [Compound 552]
6.30 to 7.00

What pKi value was documented for this compound, CCC[C@H](NC(=O)[C@@H]1C[C@]2(CC(c3cccc(Cl)c3)=NO2)CN1C(=O)C(NS(=O)(=O)c1ccc(F)cc1)C(C)C)C(=O)C(=O)NC1CC1 (some centres unmarked) [Compound 100] ?
< 6.30

Please report the recorded pKi for CCC[C@H](NC(=O)[C@@H]1C[C@]2(CC(c3cccc(Cl)c3)=NO2)CN1C(=O)[C@@H](NC(=O)CC1CCCCC1)C(C)(C)C)C(=O)C(=O)N1CC[C@@H](NC(C)=O)C1 [Compound 186] .
< 6.30

# pKi lookup, item CCC[C@H](NC(=O)[C@@H]1C[C@]2(CC(c3cccc(Cl)c3)=NO2)CN1C(=O)[C@@H](NC(=O)CN1CCOCC1)C(C)(C)C)C(=O)C(=O)NC1CC1 [Compound 81]
< 6.30

State the recorded pKi for this entry: CCC[C@H](NC(=O)[C@@H]1C[C@]2(CC(c3cccc(Cl)c3)=NO2)CN1C(=O)[C@@H](CC(=O)NC1CCCCC1)C(C)C)C(=O)C(=O)NC1CC1 [Compound 21]
< 6.30

* * *

# measurement_target: full-length hepatitis C viral protein NS3•4A (Hepatitis C virus genotype 1a, UniProt P27958)
# Construct: hexa-histidine (N); made in house; host or cells: Sf9 insect cells (baculovirus, pVL1392)
# procedure_summary: biochemical
# Design: species or system HCV sub-type strain 1a
# condition_context: Enzyme Assay 2 (HCV NS3 Peptide Cleavage Assay) activity, apparent Ki class
pKi: −log10 of the molar value.
measurement_label: pKi

Sample answers from the record:
So what's the measured pKi for this one? CCC[C@H](NC(=O)[C@@H]1C[C@]2(CC(c3cccc(Cl)c3)=NO2)CN1C(=O)[C@@H](NC(=O)CC1(C)CCCCC1)C(C)(C)C)C(=O)C(=O)NC1CC1 [Compound 29]
6.30 to 7.00

What value of pKi has been reported for the following molecule? CC(C)(C)OC(=O)N[C@H]1CCCCC/C=C\[C@@H]2C[C@@]2(C(=O)NS(=O)(=O)C2CC2)NC(=O)[C@@H]2C[C@]3(CC(C(=O)c4ccccc4)=NO3)CN2C1=O [Compound 163]
> 7.00

Which pKi reading was recorded for the molecule CNC(=O)C(=O)[C@H](CC1CCC1)NC(=O)[C@@H]1C[C@]2(CC(c3cccc(Cl)c3)=NO2)CN1C(=O)[C@@H](NC(=O)CC1CCCCC1)C(C)(C)C [Compound 741] ?
> 7.00

GET /values?readout=pKi&item= CCC[C@H](NC(=O)[C@@H]1C[C@]2(CC(c3cccc(Cl)c3)=NO2)CN1C(=O)[C@@H](NC(=O)[C@H]1C[C@@H]1c1ccccc1)C(C)(C)C)C(=O)C(=O)NC1CC1 [Compound 697]
> 7.00

Which pKi is reported for this molecule? CCC[C@H](NC(=O)[C@@H]1C[C@]2(CC(c3cc(Cl)cc4c3OC(C)(C)C4)=NO2)CN1C(=O)[C@@H](NC(=O)CC1CCCCC1)C(C)(C)C)C(=O)C(=O)NC1CC1 [Compound 170]
> 7.00

Field request: pKi | item: CCC[C@H](NC(=O)[C@@H]1C[C@]2(CC(c3cccc(Cl)c3)=NO2)CN1C(=O)[C@@H](NC(=O)[C@@H]1CCCN1C(=O)c1ccccc1)C(C)(C)C)C(=O)C(=O)NC1CC1 [Compound 26]
> 7.00

Recorded pKi of CCC[C@H](NC(=O)[C@@H]1C[C@]2(CC(c3cccc(Cl)c3)=NO2)CN1C(=O)[C@@H](NC(=O)CC1CCCCC1)C(C)(C)C)C(=O)C(=O)NCCc1cccnc1 [Compound 447] , please.
6.30 to 7.00

For the molecule CCC[C@H](NC(=O)[C@@H]1C[C@]2(CC(c3ccc(F)c(Cl)c3)=NO2)CN1C(=O)[C@@H](NC(=O)OC(C)(C)C)C(C)(C)C)C(=O)C(N)=O [Compound 627] , what pKi is on record?
> 7.00

***
Would you kindly share the measured pKi for CCC[C@H](NC(=O)[C@@H]1C[C@]2(CC(c3cc(Cl)c(OC)cc3C)=NO2)CN1C(=O)[C@@H](NC(=O)OC1CCCC1)C(C)(C)C)C(=O)C(=O)NC1CC1 [Compound 666] ?
> 7.00

* * *

# measurement_target: full-length hepatitis C viral protein NS3•4A (Hepatitis C virus genotype 1a)
# Construct: hexa-histidine (N); made in house; host or cells: Sf9 insect cells (baculovirus, pVL1392)
# procedure_summary: biochemical
# Design: species or system HCV sub-type strain 1a
# condition_context: Enzyme Assay 2, HCV NS3 Peptide Cleavage Assay, apparent Ki
Known Ki of a selection of compounds

Some compounds with known Ki results, for comparison:
Please report the recorded Ki for CCC[C@H](NC(=O)[C@@H]1C[C@]2(CC(c3cc(Cl)c(C)cc3OC)=NO2)CN1C(=O)[C@@H](NC(=O)CC1CCCCC1)C(C)(C)C)C(=O)C(=O)NC1CC1 [Compound 820] .
< 100 nM

Param item = CCOc1c(C)cc(C2=NO[C@]3(C2)C[C@@H](C(=O)N[C@@H](CC2CC2)C(=O)C(=O)NC)N(C(=O)[C@@H](NC(=O)[C@@H]2C[C@H]2c2ccccc2OC)C(C)(C)C)C3)cc1C [Compound 985] ; retrieve measured Ki.
< 100 nM

Which Ki is listed for CCC[C@H](NC(=O)C1C[C@]2(CC(c3cc(C)c(OC)c(C)c3)=NO2)CN1C(=O)[C@@H](NC(=O)[C@@H]1C[C@H]1c1c[nH]cn1)C(C)(C)C)C(=O)C(=O)NC1CC1 (stereo partly shown) [Compound 907] ?
100 to 500 nM

Shifting focus to the compound that follows.
Would you mind telling me what Ki value was observed for CCC[C@H](NC(=O)[C@@H]1C[C@]2(CC(c3cc(Cl)ccc3N(C)C)=NO2)CN1C(=O)[C@@H](NC(=O)CC1CCCCC1)C(C)(C)C)C(=O)C(=O)NC1CC1 [Compound 803] ?
100 to 500 nM

* * *

# measurement_target: HCV NS3 protease domain (Hepatitis C virus genotype 1b, UniProt Q9WMX2)
# Construct: The first 181 amino acids of NS3 (residues 1027-1207 of the viral polyprotein); hexa-histidine (C); made in house; host or cells: E. coli BL21/DE3 pLysS
# procedure_summary: biochemical
# condition_context: Enzyme Assay 1 (HCV NS3 Protease Domain Peptide Cleavage Assay) activity, apparent Ki class
Reported Ki values follow for various molecules

Solved entries (count: 2):
For `CCC[C@H](NC(=O)[C@@H]1C[C@]2(CC(c3cccc(Cl)c3)=NO2)CN1C(=O)[C@H](CSC(C)(C)C)NC(=O)CC1CCCCC1)C(=O)C(=O)NC1CC1` , what is its reported Ki?
> 0.5 µM

What Ki value was documented for this molecule, CCC[C@H](NC(=O)[C@@H]1C[C@]2(CC(c3cccc(Cl)c3)=NO2)CN1C(=O)[C@@H](NC(=O)OCC1CCCCO1)C(C)(C)C)C(=O)C(=O)NC1CC1 (stereo partly drawn) ?
0.1 to 0.5 µM

As a next step, examine the molecule that follows.
Find the recorded Ki belonging to `CCC[C@H](NC(=O)[C@@H]1C[C@]2(CC(c3cccc(Cl)c3)=NO2)CN1C(=O)CCCC(=O)Nc1ccc(C)cc1C)C(=O)C(=O)NC1CC1` and report it.
> 0.5 µM
